Would you kindly list activation at 5 µM for each of these compounds?
biological target: 5-HT2B receptor (Homo sapiens, UniProt P41595); construct: host or cells: unnamed cell lines; test: Calcium mobilization assay, agonist format, 5-HT2B receptor; assay type: cell-based; settings: read-out: 5-HT2B agonist Efficacy @ 5 µM
Sequence (P41595 whole entry): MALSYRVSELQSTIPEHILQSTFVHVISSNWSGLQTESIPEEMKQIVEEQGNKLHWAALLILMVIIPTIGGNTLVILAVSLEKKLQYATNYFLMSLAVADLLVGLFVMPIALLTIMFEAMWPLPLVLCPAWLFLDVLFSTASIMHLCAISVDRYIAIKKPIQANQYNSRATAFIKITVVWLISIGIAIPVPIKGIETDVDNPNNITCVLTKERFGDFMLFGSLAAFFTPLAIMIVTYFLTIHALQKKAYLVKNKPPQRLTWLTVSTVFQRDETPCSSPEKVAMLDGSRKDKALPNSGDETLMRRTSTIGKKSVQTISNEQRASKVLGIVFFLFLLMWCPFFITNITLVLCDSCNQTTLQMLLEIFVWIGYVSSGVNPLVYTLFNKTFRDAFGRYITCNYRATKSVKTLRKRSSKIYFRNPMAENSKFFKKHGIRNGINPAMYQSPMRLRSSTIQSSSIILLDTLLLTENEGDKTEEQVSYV
Numeric only. Scale: %

Consider the compound shown here: [2H]C([2H])([2H])Oc1ccc2c3c([nH]c2c1)CCNCC3 [Compound 163] What is its recorded activation at 5 µM?
-0.2

Consider the compound shown here: CN1CCc2[nH]c3c4c(ccc3c2CC1)OCCC4 [Compound 122] What is its recorded activation at 5 µM?
-0.8

Consider the compound shown here: CN1CCc2[nH]c3cc(OC4CC4)ccc3c2CC1 [Compound 117] What is its recorded activation at 5 µM?
1.7

Consider the compound shown here: CN1CCc2[nH]c3cc(S(F)(F)(F)(F)F)ccc3c2CC1 [Compound 109] What is its recorded activation at 5 µM?
8.5

Consider the compound shown here: CN1CCc2[nH]c3cccc(S(F)(F)(F)(F)F)c3c2CC1 [Compound 110] What is its recorded activation at 5 µM?
4

Consider the compound shown here: COc1ccc2c3c([nH]c2c1)CCN(CCN(C)C)CC3 [Compound 144] What is its recorded activation at 5 µM?
-0.5

Consider the compound shown here: COc1ccc2c3c([nH]c2c1)CCN(CCS(C)(=O)=O)CC3 [Compound 143] What is its recorded activation at 5 µM?
-0.1

Consider the compound shown here: [2H]C([2H])([2H])N1CCc2[nH]c3cc(OC)ccc3c2CC1 [Compound 2] What is its recorded activation at 5 µM?
-0.4

Consider the compound shown here: CN1CCc2[nH]c3cc4c(cc3c2CC1)OCC4 [Compound 166] What is its recorded activation at 5 µM?
0.3

Consider the compound shown here: COc1ccc2c3c([nH]c2c1)CCN(CCO)CC3 [Compound 140] What is its recorded activation at 5 µM?
-0.9

----------
molecular target: 5-HT2A receptor (Homo sapiens); construct: host or cells: unnamed cell lines; assay: Calcium mobilization assay, agonist format, 5-HT2A receptor; type: cell-based; conditions: read-out: 5-HT2A agonist Efficacy @ 10 µM
Sequence (P28223 whole entry): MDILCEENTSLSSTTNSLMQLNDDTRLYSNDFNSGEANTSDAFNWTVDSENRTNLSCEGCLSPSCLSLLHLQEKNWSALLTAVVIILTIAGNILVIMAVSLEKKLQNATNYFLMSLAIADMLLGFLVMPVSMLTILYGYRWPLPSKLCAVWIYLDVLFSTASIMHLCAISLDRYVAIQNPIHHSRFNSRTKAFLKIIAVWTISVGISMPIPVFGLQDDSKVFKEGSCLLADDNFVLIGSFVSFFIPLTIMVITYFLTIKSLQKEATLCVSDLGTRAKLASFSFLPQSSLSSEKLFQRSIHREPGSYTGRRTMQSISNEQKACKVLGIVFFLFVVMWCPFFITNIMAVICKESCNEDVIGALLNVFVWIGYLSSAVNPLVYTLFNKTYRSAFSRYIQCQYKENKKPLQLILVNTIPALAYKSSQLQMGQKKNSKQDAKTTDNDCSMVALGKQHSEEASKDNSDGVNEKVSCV
Quick rule for you: activation at 10 µM at 50% or higher means Condition met, lower means Condition not met.

# check: activation at 10 µM of c1cc2c3c([nH]c2cc1OC1CC1)CCN(C1CC1)CC3 is greater than or equal to 50%
Condition not met

# check: activation at 10 µM of [2H]C([2H])([2H])N1CCc2[nH]c3cc(OC)ccc3c2CC1 is greater than or equal to 50%
Condition not met

# check: activation at 10 µM of CN1CCc2[nH]c3c4c(ccc3c2CC1)OCCC4 is greater than or equal to 50%
Condition met

# check: activation at 10 µM of [2H]C([2H])([2H])Oc1ccc2c3c([nH]c2c1)CCN(C([2H])([2H])[2H])CC3 is greater than or equal to 50%
Condition not met

# check: activation at 10 µM of COc1ccc2c3c([nH]c2c1)CCN(CCO)CC3 is greater than or equal to 50%
Condition not met

# check: activation at 10 µM of CN1CCc2[nH]c3cccc(S(F)(F)(F)(F)F)c3c2CC1 is greater than or equal to 50%
Condition not met

# check: activation at 10 µM of [2H]C([2H])([2H])Oc1ccc2c3c([nH]c2c1)CCN(C)CC3 is greater than or equal to 50%
Condition not met

# check: activation at 10 µM of CN1CCc2[nH]c3cc(S(F)(F)(F)(F)F)ccc3c2CC1 is greater than or equal to 50%
Condition not met

# check: activation at 10 µM of COc1ccc2c3c([nH]c2c1)CCN(CCN(C)C)CC3 is greater than or equal to 50%
Condition not met

# check: activation at 10 µM of [2H]C([2H])([2H])N1CCc2[nH]c3cc(OC4CC4)ccc3c2CC1 is greater than or equal to 50%
Condition not met

# check: activation at 10 µM of COc1ccc2c3c([nH]c2c1)CCN(C)CC3 [TBG, reference compound] is greater than or equal to 50%
Condition not met

# check: activation at 10 µM of COc1ccc2c3c([nH]c2c1)CCNCC3 [reference compound] is greater than or equal to 50%
Condition met

# check: activation at 10 µM of CN1CCc2[nH]c3cccc(C#N)c3c2CC1 is greater than or equal to 50%
Condition not met

# check: activation at 10 µM of CN1CCc2[nH]c3c4c(ccc3c2CC1)OCC4 is greater than or equal to 50%
Condition met

# check: activation at 10 µM of [2H]C([2H])([2H])Oc1ccc2c3c([nH]c2c1)CCNCC3 is greater than or equal to 50%
Condition met

# check: activation at 10 µM of CN1CCc2[nH]c3cc(C#N)ccc3c2CC1 is greater than or equal to 50%
Condition not met

# check: activation at 10 µM of [2H]C([2H])([2H])Oc1ccc2c3c([nH]c2c1)CCN(C1CC1)CC3 is greater than or equal to 50%
Condition met

# check: activation at 10 µM of CN1CCc2[nH]c3cc(OC4CC4)ccc3c2CC1 is greater than or equal to 50%
Condition not met

# check: activation at 10 µM of COc1ccc2c3c([nH]c2c1)CCN(C1CC1)CC3 is greater than or equal to 50%
Condition met

# check: activation at 10 µM of COc1ccc2c3c([nH]c2c1)CCN(CCS(C)(=O)=O)CC3 is greater than or equal to 50%
Condition not met

# check: activation at 10 µM of CN1CCc2[nH]c3cc4c(cc3c2CC1)OCC4 is greater than or equal to 50%
Condition met
